Molecular target: human GLP1R (Homo sapiens, UniProt P43220)
Sequence (P43220 24-463): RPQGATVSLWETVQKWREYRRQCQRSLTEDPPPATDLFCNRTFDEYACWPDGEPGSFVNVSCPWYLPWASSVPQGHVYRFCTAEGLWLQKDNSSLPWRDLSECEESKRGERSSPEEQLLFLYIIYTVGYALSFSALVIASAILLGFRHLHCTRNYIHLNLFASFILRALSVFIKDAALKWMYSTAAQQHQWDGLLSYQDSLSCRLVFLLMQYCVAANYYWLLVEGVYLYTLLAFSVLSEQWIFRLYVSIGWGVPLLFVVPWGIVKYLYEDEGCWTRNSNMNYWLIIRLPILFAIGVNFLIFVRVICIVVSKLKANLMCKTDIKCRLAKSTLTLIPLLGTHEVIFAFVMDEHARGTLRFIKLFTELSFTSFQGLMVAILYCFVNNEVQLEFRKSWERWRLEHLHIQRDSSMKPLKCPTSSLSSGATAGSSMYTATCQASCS
Assay: Luciferase reporter assay, HEK293/CRE-Luc/hGLP1R (Example 17)
Type: cell-based
Design: engineered to express full-length human GLP1R, cynomolgus GLP1R; expressed in transfected cells; host or cells: HEK293/CRE-Luc
Details: HEK293/CRE-Luc/hGLP1R; highest RLU / RLU of untreated wells
From the text: To test the activity of GLP1R agonist payloads, GLP1R agonist linker-payloads (LPs), and anti-GLP1R antibody tethered drug conjugates (ATDCs) of the invention, a cell-based cAMP responsive luciferase reporter assay was developed. To generate the assay cell line, the firefly luciferase gene was placed under the control of a cAMP response element (CRE) located upstream of a minimal promoter and transfected into HEK293 cells and referred to herein as HEK293/CRE-Luc cells. […]
Where a SMILES comes first, the peptide text is derived from it. [ ]: non-standard residue; d: D form. The star is where a group is joined. Bip(2'-Et,4'-O(CH2)4NH2) = CCc1cc(OCCCCN)ccc1-c1ccc(C[C@H](N)C(=O)O)cc1; Malonyl(2,2-Me2,histaminyl) = CC(C)(C(=O)NCCc1cnc[nH]1)C(=O)*; Nva(5-(3,5-Me2Ph)) = Cc1cc(C)cc(CCC[C@H](N)C(=O)O)c1; Ala(1H-tetrazol-5-yl) = N[C@@H](Cc1nnn[nH]1)C(=O)O; αMePhe(2-F) = C[C@](N)(Cc1ccccc1F)C(=O)O
S/N reference
Write no unit; give the number alone.

compound	S/N
CCc1cc(OCCCCNC(=O)[C@H](CO)NC(=O)CNC(=O)CNC(=O)CNC(=O)CNC(=O)CCC(=O)N2Cc3ccccc3C#Cc3ccccc32)ccc1-c1ccc(C[C@H](NC(=O)[C@H](CC(=O)O)NC(=O)[C@H](CO)NC(=O)[C@@H](NC(=O)[C@](C)(Cc2ccccc2F)NC(=O)[C@@H](NC(=O)CNC(=O)[C@H](Cc2nn[nH]n2)NC(=O)C(C)(C)C(N)=O)[C@@H](C)O)[C@@H](C)O)C(=O)N[C@@H](CCCc2cc(C)cc(C)c2)C(N)=O)cc1	78.1

# ---- query compound ----
Prompt: # lookup: S/N of CCc1cc(OCCCCN)ccc1-c1ccc(C[C@H](NC(=O)[C@H](CC(=O)O)NC(=O)[C@H](CO)NC(=O)[C@@H](NC(=O)[C@](C)(Cc2ccccc2F)NC(=O)[C@@H](NC(=O)CNC(=O)[C@H](Cc2nn[nH]n2)NC(=O)C(C)(C)C(=O)NCCc2cnc[nH]2)[C@@H](C)O)[C@@H](C)O)C(=O)N[C@@H](CCCc2cc(C)cc(C)c2)C(N)=O)cc1 [P9] ({Malonyl(2,2-Me2,histaminyl)}-[Ala(1H-tetrazol-5-yl)]GT[αMePhe(2-F)]TSD[Bip(2'-Et,4'-O(CH2)4NH2)][Nva(5-(3,5-Me2Ph))]-NH2)
Response: 75.2
